Origin of the recorded values: paper PMC6855808

Molecular target: ELIC R117Q/R299Q (Dickeya chrysanthemi, UniProt P0C7B7, R117Q/R298Q)
Construct: MBP (N, cleaved yes); made in house; host or cells: OverExpress C43 (DE3) E. coli
Sequence (P0C7B7 whole entry R117Q/R298Q): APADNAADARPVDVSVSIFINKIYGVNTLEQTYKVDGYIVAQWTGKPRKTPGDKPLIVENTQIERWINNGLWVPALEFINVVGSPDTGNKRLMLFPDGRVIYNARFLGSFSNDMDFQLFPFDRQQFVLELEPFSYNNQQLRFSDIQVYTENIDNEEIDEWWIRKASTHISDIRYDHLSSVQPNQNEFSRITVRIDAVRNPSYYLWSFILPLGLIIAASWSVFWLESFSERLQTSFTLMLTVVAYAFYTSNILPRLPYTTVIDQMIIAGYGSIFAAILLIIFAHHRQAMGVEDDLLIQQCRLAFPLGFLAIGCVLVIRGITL
Assay: Excised patch-clamp recordings from giant liposomes
Format: biochemical, Erwinia chrysanthemi
Conditions: 25 mole% POPG; read-out: Cysteamine response EC50
reported_metric: EC50 (µM)

* NCCS | 2400

* * *

System: ELIC WT
Test: Excised patch-clamp recordings from giant liposomes
Conditions: read-out: Dose response EC50 (mM cysteamine); 12 mole% POPG; peak current; 0.5 mM BaCl2
reported_metric: EC50 (mM)

- NCCS: 5.3
